Test: Steady-state trough and peak plasma concentrations of PMB (UPLC-MS/MS) and AUCss,24h estimation
Assay type: in vivo, critically ill patients
Settings: human, plasma, iv, validation set, two-point method (Ctrough,ss and Cpeak,ss, first-order elimination equation), mean ± SD; SD; read-out: Equation-based AUCss,24h
Bridge positions count the residues as written; N and C are the ends. Square brackets hold non-standard residues; d marks the D form. Peptide text beside a SMILES is read from it. * marks the point of attachment. X1 = CC[C@H](C)CCCCC(=O)*; Dab = NCC[C@H](N)C(=O)O
reported-property: AUC(0-t) (ng·h/mL)
Numeric only. Scale: ng·h/mL

The reported value for CC[C@H](C)CCCCC(=O)N[C@@H](CCN)C(=O)N[C@H](C(=O)N[C@@H](CCN)C(=O)N[C@H]1CCNC(=O)[C@H]([C@@H](C)O)NC(=O)[C@H](CCN)NC(=O)[C@H](CCN)NC(=O)[C@H](CC(C)C)NC(=O)[C@@H](Cc2ccccc2)NC(=O)[C@H](CCN)NC1=O)[C@@H](C)O [PMB, polymyxin B] (X1-[Dab]T[Dab][Dab][Dab][dF]L[Dab][Dab]T; lactam 4-C) in terms of AUC(0-t) is 90500
